Numbers sourced from patent US7566722B2.

- TARGET_OR_SYSTEM: P2Y12 receptor (Homo sapiens)
- Construct: expressed in transfected cells
- PROTOCOL_SUMMARY: Whole cell receptor binding assay, 2-MeS[3H]-ADP
- SETUP_CONDITIONS: HEK 293 cells stably transfected with P2Y12; 2-MeS[3H]-ADP 3 nM; 30 min at 37° C.; read-out: Inhibition of Receptor Binding (IC50 μM)
RESULT_TYPE: IC50
Returns: string containing the numeric result and its unit.

Example entries begin here.
[
  {
    "COMPOUND": "CCCSc1nc(NC[C@@H]2CCCO2)c2nnn([C@@H]3C[C@H](c4nnn[nH]4)[C@@H](O)[C@H]3O)c2n1",
    "RESULT_TYPE": "IC50",
    "RESULT": "0.237 µM"
  },
  {
    "COMPOUND": "CCCCNc1nc(SCCC)nc2c1nnn2[C@@H]1C[C@H](c2nnc(C)[nH]2)[C@@H](O)[C@H]1O",
    "RESULT_TYPE": "IC50",
    "RESULT": "2.16 µM"
  },
  {
    "COMPOUND": "CCCSc1nc(N[C@@H]2C[C@H]2c2ccccc2)c2nnn([C@@H]3C[C@H](Cn4nccn4)[C@@H](O)[C@H]3O)c2n1 (mixture of isomers)",
    "RESULT_TYPE": "IC50",
    "RESULT": "0.437 µM"
  }
]

Then there is this compound:
[Q] Missing value: IC50, P2Y12 receptor (Homo sapiens), entry CCCSc1nc(NCC2CC2)c2nnn([C@@H]3C[C@H](c4nnn[nH]4)[C@@H](O)[C@H]3O)c2n1 . Fill in?
[A] 0.139 µM

* * *

Listed below: IC50 values for each entry.
- TARGET_OR_SYSTEM: P2Y12 receptor (Homo sapiens, UniProt Q9H244)
- Construct: expressed in transfected cells
- Sequence (Q9H244 whole entry): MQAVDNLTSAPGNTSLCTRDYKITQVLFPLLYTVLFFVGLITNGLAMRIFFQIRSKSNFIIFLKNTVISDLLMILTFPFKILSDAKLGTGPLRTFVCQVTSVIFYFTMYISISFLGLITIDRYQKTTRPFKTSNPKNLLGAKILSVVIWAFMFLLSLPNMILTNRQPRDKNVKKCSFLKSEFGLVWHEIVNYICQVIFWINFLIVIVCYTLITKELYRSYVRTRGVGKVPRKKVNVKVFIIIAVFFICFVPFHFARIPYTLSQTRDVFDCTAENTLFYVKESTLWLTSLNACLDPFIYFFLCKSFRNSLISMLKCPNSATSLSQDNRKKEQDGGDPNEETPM
- PROTOCOL_SUMMARY: Whole cell receptor binding assay, 2-MeS[3H]-ADP
- SETUP_CONDITIONS: HEK 293 cells stably transfected with P2Y12; 2-MeS[3H]-ADP 3 nM; 30 min at 37° C.; read-out: Inhibition of Receptor Binding (IC50 μM)
Report the value in µM with no unit label.

Example entries begin here.
[
  {
    "COMPOUND": "CCCCNc1nc(SCCC)nc2c1nnn2[C@@H]1C[C@H](c2nnn[nH]2)[C@@H](O)[C@H]1O",
    "VALUE_UNIT": "µM",
    "IC50": 0.0137
  },
  {
    "COMPOUND": "CCCSc1nc(N[C@@H]2C[C@H]2c2ccccc2)c2nnn([C@@H]3C[C@H](c4nnn[nH]4)[C@@H](O)[C@H]3O)c2n1 [Cpd 22]",
    "VALUE_UNIT": "µM",
    "IC50": 0.002
  },
  {
    "COMPOUND": "CCCSc1nc(NCCc2ccccc2)c2nnn([C@@H]3C[C@H](c4nnn[nH]4)[C@@H](O)[C@H]3O)c2n1",
    "VALUE_UNIT": "µM",
    "IC50": 0.73
  },
  {
    "COMPOUND": "CCCSc1nc(NC[C@H](C)c2ccccc2)c2nnn([C@@H]3C[C@H](c4nnc(C)[nH]4)[C@@H](O)[C@H]3O)c2n1",
    "VALUE_UNIT": "µM",
    "IC50": 9.59
  }
]

[Q] Missing value: IC50, P2Y12 receptor (Homo sapiens, UniProt Q9H244), entry CCCSc1nc(N[C@@H]2C[C@H]2c2ccccc2)c2nnn([C@@H]3C[C@H](Cn4ncnn4)[C@@H](O)[C@H]3O)c2n1 (mixture of isomers) . Fill in?
[A] 0.148

[Q] Missing value: IC50, P2Y12 receptor (Homo sapiens, UniProt Q9H244), entry CCCSc1nc(NCCc2cccs2)c2nnn([C@@H]3C[C@H](c4nnc(C)[nH]4)[C@@H](O)[C@H]3O)c2n1 . Fill in?
[A] 3.74
